Hi there, I'd appreciate the recorded hemolysis at 0.5 h for every entry that follows.
experiment: Toxicity in human erythrocytes assessed as induction of hemolysis up to 400 uM incubated for 30 mins by microplate reader assay; assay type: cell-based, Erythrocyte; conditions: read-out: Activity
Where a SMILES comes first, the peptide text is derived from it.
# value in %; strip the unit string

Problem: Request the reported hemolysis at 0.5 h associated with CC[C@H](C)[C@H](NC(=O)[C@H](CCCCN)NC(=O)[C@H](CCCCN)NC(=O)[C@H](CC(C)C)NC(=O)[C@H](CCCNC(=N)N)NC(=O)[C@H](CCCCN)NC(=O)[C@@H](N)CCCCN)C(=O)N[C@@H](Cc1ccccc1)C(=O)N[C@@H](CCCCN)C(=O)N[C@@H](CCCCN)C(=O)N1CCC[C@H]1C(=O)N[C@@H](CCSC)C(=O)N[C@H](C(=O)N[C@H](C(=O)NCC(=O)N[C@H](C(=O)N[C@H](C(=O)N[C@H](C(=O)N1CCC[C@H]1C(=O)N[C@@H](Cc1ccccc1)C(N)=O)[C@@H](C)CC)[C@H](C)O)C(C)C)[C@@H](C)CC)C(C)C
Result: 7

Problem: Now consider CC(C)[C@H](NC(=O)[C@H](CO)NC(=O)[C@H](CCCCN)NC(=O)[C@H](CCCCN)NC(=O)[C@@H](NC(=O)[C@H](CCCCN)NC(=O)[C@H](CCCCN)NC(=O)[C@H](Cc1ccccc1)NC(=O)[C@H](Cc1ccccc1)NC(=O)[C@H](CCCCN)NC(=O)[C@H](CCCCN)NC(=O)[C@H](Cc1ccccc1)NC(=O)[C@H](CCCNC(=N)N)NC(=O)[C@@H](N)CCCCN)C(C)C)C(N)=O (H-KRFKKFFKKVKKSV-NH2) .
Result: 7
